Test system: Rattus norvegicus
assay_text: Unbound plasma clearance in iv dosed rat
Assay type: ADME, organism-based
test_parameters: in vivo
measurement_name: CL free (mL/min/kg)

>>> df
                                   compound  measurement_name   unit_tag  observed_measurement
0  CC(c1nnc(-c2cccc(F)c2)o1)N1CC(C)(C)C(Oc2ccc(C#N)c(C(F)(F)F)c2)C1=O (racemic)           CL free  mL/min/kg                  1585
1  CC1(C)CN(Cc2nnc(-c3ccccc3)o2)C(=O)[C@@H]1Oc1ccc(C#N)c(C(F)(F)F)c1           CL free  mL/min/kg                   921
2  CC1(C)CN(CCC#N)C(=O)[C@@H]1Oc1ccc(C#N)c(C(F)(F)F)c1           CL free  mL/min/kg                   170
3  C[C@@H](c1nnc(-c2ccccc2)o1)N1CC(C)(C)[C@@H](Oc2ccc(C#N)c(C(F)(F)F)c2)C1=O           CL free  mL/min/kg                  4294

====

assay_text: Solubility of the compound at pH 7.4
Type: physicochemical
test_parameters: buffer
Entries and their log10 of solubility
measurement_name: log10 of solubility (log10 of the value in µg/mL)

>>> df
                                   molecule  observed_measurement
0  Cc1nnc(CN2CC(C)(C)[C@@H](Oc3ccc(C#N)c(C(F)(F)F)c3)C2=O)o1                  2.34
1  CC1(C)CN(CCC#N)C(=O)[C@@H]1Oc1ccc(C#N)c(Cl)c1                  2.20
2  C[C@@H](c1nnc(-c2ccccc2)o1)N1CC(C)(C)[C@@H](Oc2ccc(C#N)c(C(F)(F)F)c2)C1=O                  0.57
3  CC1(C)CN(Cc2nnc(-c3ccccc3)o2)C(=O)[C@@H]1Oc1ccc(C#N)c(C(F)(F)F)c1                  0.77
4  CC1(C)CN(CCC#N)C(=O)[C@@H]1Oc1ccc(C#N)c(C(F)(F)F)c1                  1.76
5  CC(c1nnc(-c2cccc(F)c2)o1)N1CC(C)(C)C(Oc2ccc(C#N)c(C(F)(F)F)c2)C1=O (racemic)                  0.58

====

Tested on: Liver microsomes
assay_text: Unbound intrinsic clearance in human liver microsomes
Assay type: ADME, Microsome
measurement_name: CL free (µL/min/mg)

                                   molecule  measurement_name  observed_measurement
0  C[C@@H](c1nnc(-c2ccccc2)o1)N1CC(C)(C)[C@@H](Oc2ccc(C#N)c(C(F)(F)F)c2)C1=O           CL free                 43.87
1  CC1(C)CN(CCC#N)C(=O)[C@@H]1Oc1ccc(C#N)c(C(F)(F)F)c1           CL free                  19.1
2  CC1(C)CN(Cc2nnc(-c3ccccc3)o2)C(=O)[C@@H]1Oc1ccc(C#N)c(C(F)(F)F)c1           CL free                  19.3
3  CC(c1nnc(-c2cccc(F)c2)o1)N1CC(C)(C)C(Oc2ccc(C#N)c(C(F)(F)F)c2)C1=O (racemic)           CL free                   115
